- study target: Lipase from Candida antarctica (Type B) (Moesziomyces antarcticus)
- Sequence (P41365 26-342): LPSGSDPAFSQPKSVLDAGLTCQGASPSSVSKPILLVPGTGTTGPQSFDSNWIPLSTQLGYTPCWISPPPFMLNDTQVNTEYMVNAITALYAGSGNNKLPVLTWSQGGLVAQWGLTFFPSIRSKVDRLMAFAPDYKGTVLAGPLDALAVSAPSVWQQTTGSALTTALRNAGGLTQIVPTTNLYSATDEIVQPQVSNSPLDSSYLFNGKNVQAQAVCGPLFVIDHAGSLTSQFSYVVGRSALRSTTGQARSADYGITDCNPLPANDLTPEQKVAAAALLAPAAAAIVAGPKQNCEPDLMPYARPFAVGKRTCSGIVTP
- protocol description: Enantioselective acylation of R,S-1-phenylethanol in ionic liquids; note: key: (+) good to better; (±) the same
- Format: biochemical
- run conditions: 24° C., 3-4 days
test readout: Conversion compared to the standard reaction in tert-butylmethyl ether

Example cases with answers are listed next.
CCCCCCCCn1cc[n+](C)c1.F[B-](F)(F)F	+
CCCC[n+]1ccc(C)cc1.F[B-](F)(F)F	+
CCCCCCCCC[n+]1ccn(C)c1.F[P-](F)(F)(F)(F)F	±
CCCCn1cc[n+](C)c1.O=S(=O)([N-]S(=O)(=O)C(F)(F)F)C(F)(F)F	+
CCCCn1cc[n+](C)c1.O=S(=O)([O-])C(F)(F)F	+
CCCCn1cc[n+](C)c1.F[B-](F)(F)F	+

Now look at this one.
Fill in the blank: the reported Conversion compared to the standard reaction in tert-butylmethyl ether of CCCCCCn1cc[n+](C)c1.F[B-](F)(F)F is ____.
±
